Assayed system: PDE4B (human recombinant) (Homo sapiens)
Construct: made in house
Sequence (Q07343 1-564 isoform Q07343-2): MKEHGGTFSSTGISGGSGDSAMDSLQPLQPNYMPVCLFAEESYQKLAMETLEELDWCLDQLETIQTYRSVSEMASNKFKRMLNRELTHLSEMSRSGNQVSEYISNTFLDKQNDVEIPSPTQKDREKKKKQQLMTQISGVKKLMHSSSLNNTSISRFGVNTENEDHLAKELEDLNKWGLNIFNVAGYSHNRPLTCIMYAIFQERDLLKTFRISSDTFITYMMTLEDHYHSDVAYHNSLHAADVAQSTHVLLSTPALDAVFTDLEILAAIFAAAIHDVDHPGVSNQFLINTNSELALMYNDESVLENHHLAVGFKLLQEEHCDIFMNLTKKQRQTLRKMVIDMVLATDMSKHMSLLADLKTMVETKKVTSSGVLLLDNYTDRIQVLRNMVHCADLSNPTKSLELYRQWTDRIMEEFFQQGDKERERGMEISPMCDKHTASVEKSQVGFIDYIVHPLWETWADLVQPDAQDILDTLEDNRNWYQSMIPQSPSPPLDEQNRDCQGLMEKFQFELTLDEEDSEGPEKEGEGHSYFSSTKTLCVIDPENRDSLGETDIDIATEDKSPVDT
Test: Inhibition of PDE4B activity (radioactive SPA assay or IMAP FP assay)
Assay type: biochemical
Condition description: specific Examples; one reading or average of ca. 2-6 readings; read-out: PDE4B pIC50 (± about 0.5) (converted)
Property name: IC50 (nM)
State just the number; it will be interpreted in nM.

[[record]]
compound = "CCn1ncc2c(NC(C)(C)C)c(C(=O)NCc3ccccc3)cnc21 [Example 53]"
property_name = "IC50"
numeric_result = 15.8


Please find the next compound below.
[in] Give recorded IC50. CCn1ncc2c(N[C@H](C)C(C)C)c(C(=O)NCc3ccccc3)cnc21 [Example 1]
[out] 15.8

====

IC50 values, listed per item
Assayed system: PDE5 (human recombinant) (Homo sapiens, UniProt O76074)
Test: Inhibition of PDE5 activity (radioactive SPA assay)
Assay type: biochemical
Condition description: specific Examples; one reading or average of ca. 2-6 readings; read-out: PDE5 pIC50 (± about 0.5) (converted)
Please give a number only; it is taken to be in nM.

Worked cases, answers included:
[[record]]
molecule = "CCn1ncc2c(N[C@H](C)C(C)C)c(C(=O)NCc3ccccc3)cnc21 [Example 1]"
property_name = "IC50"
output_unit = "nM"
numeric_result = 1000

[[record]]
molecule = "CCC(C)Nc1c(C(=O)Nc2ccccc2)cnc2c1cnn2C(C)C (stereo not shown) [Comparative Example 61, reference compound]"
property_name = "IC50"
output_unit = "nM"
numeric_result = 5010


[in] Let me know recorded IC50 for CCCCNC(=O)c1cnc2c(cnn2CC)c1NCCCC [reference compound] , thanks.
[out] 398
